// provenance: DBAASP

The following compounds have recorded MIC on Staphylococcus aureus NCTC 8325.
One number for each entry, in µM.

| COMPOUND | MIC (µM) |
| --- | --- |
| CC[C@H](C)[C@H](NC(=O)[C@H](CCCCN)NC(=O)[C@H](CCCCN)NC(=O)[C@H](C)NC(=O)[C@H](CC(C)C)NC(=O)[C@H](CC(N)=O)NC(=O)[C@@H](NC(=O)[C@H](CC(C)C)NC(=O)[C@@H](NC(=O)CNC(=O)[C@H](CC(C)C)NC(=O)[C@H](Cc1ccccc1)NC(=O)[C@@H](N)CC(N)=O)[C@@H](C)O)C(C)C)C(=O)N[C@@H](CC(C)C)C(N)=O [NFLGTLVNLAKKIL] | 20 |

Task: I am curious: what MIC value has been reported for CC[C@H](C)[C@H](NC(=O)[C@H](CO)NC(=O)[C@H](CO)NC(=O)[C@H](CC(C)C)NC(=O)[C@@H](N)Cc1ccccc1)C(=O)NCC(=O)N[C@@H](CCCCN)C(=O)N[C@H](C(=O)N[C@@H](CC(C)C)C(=O)NCC(=O)N[C@@H](CC(N)=O)C(=O)N[C@@H](CC(C)C)C(=O)N[C@@H](CC(C)C)C(N)=O)[C@@H](C)CC [FLSSIGKILGNLL] ?
Output: 10

----------
Test system: Escherichia coli
MEASUREMENT_TYPE: MIC (µM)
One number for each entry, in µM.

Solved cases below.
| COMPOUND_STRUCTURE | EXPERIMENTAL_TARGET | UNITS_TEXT | NUMERIC_VALUE |
| --- | --- | --- | --- |
| CC(C)[C@@H]1NC(=O)[C@@H]2CSSC[C@H](NC(=O)[C@H](Cc3ccc(O)cc3)NC(=O)[C@@H](N)CSSC[C@@H](C(=O)O)NC1=O)C(=O)N[C@@H](CCCN=C(N)N)C(=O)N[C@@H](CCCN=C(N)N)C(=O)N[C@@H](CCCN=C(N)N)C(=O)N[C@@H](Cc1ccccc1)C(=O)N2 | Escherichia coli | µM | 10.8 |
| CC(C)C[C@H](NC(=O)[C@H](CCCCN)NC(=O)[C@H](Cc1ccccc1)NC(=O)[C@@H](NC(=O)[C@@H](NC(=O)[C@H](CCCCN)NC(=O)[C@H](CC(C)C)NC(=O)[C@@H](N)Cc1ccccc1)C(C)C)C(C)C)C(=O)N[C@@H](C)C(=O)N[C@@H](CO)C(=O)N[C@@H](CCCCN)C(=O)N[C@H](C(=O)N[C@@H](Cc1ccccc1)C(=O)N1CCC[C@H]1C(=O)N[C@@H](C)C(=O)N[C@H](C(=O)N[C@@H](Cc1ccccc1)C(=O)NCC(=O)N[C@@H](CCCCN)C(=O)N[C@H](C(=O)O)C(C)C)C(C)C)C(C)C | Escherichia coli | µM | 14.4 |
| CC[C@H](C)[C@H](NC(=O)[C@H](CCCCN)NC(=O)[C@H](CO)NC(=O)[C@H](Cc1ccccc1)NC(=O)[C@H](CC(C)C)NC(=O)[C@H](CCCCN)NC(=O)[C@H](CCC(=O)O)NC(=O)[C@H](CC(C)C)NC(=O)[C@H](CCCN=C(N)N)NC(=O)[C@H](CCCCN)NC(=O)[C@H](Cc1ccccc1)NC(=O)[C@@H](NC(=O)[C@H](CCCCN)NC(=O)[C@H](CCCCN)NC(=O)[C@H](C)N)C(C)C)C(=O)N[C@@H](CCC(N)=O)C(=O)N[C@@H](CC(N)=O)C(=O)N[C@@H](CC(=O)O)C(=O)N[C@@H](CCCCN)C(N)=O | Escherichia coli | µM | 3.13 |
| CC(C)C[C@H](NC(=O)[C@H](CO)NC(=O)[C@H](Cc1cnc[nH]1)NC(=O)[C@H](CO)NC(=O)[C@H](CC(C)C)NC(=O)[C@H](CC(C)C)NC(=O)[C@@H](N)CCCCN)C(=O)N[C@@H](CC(C)C)C(=O)N[C@H](C(=O)N[C@H](C(=O)N[C@@H](CC(C)C)C(=O)N[C@@H](C)C(=O)O)[C@@H](C)O)C(C)C | Escherichia coli | µM | 9.66 |
| CC(C)[C@H](NC(=O)CNC(=O)[C@@H](N)Cc1cnc[nH]1)C(=O)N[C@@H](CO)C(=O)NCC(=O)N[C@@H](Cc1cnc[nH]1)C(=O)NCC(=O)N[C@@H](CCC(N)=O)C(=O)N[C@@H](Cc1cnc[nH]1)C(=O)NCC(=O)N[C@H](C(=O)N[C@@H](Cc1cnc[nH]1)C(=O)NCC(=O)O)[C@@H](C)O | Escherichia coli | µM | 6.31 |

For each entry beneath this line, provide reported MIC.
1. CC[C@H](C)[C@H](N)C(=O)N[C@@H](CC(N)=O)C(=O)N[C@@H](Cc1c[nH]c2ccccc12)C(=O)N[C@@H](CC(C)C)C(=O)N[C@@H](CCCCN)C(=O)N[C@@H](CC(C)C)C(=O)NCC(=O)N[C@@H](CCCCN)C(=O)N[C@@H](CCCCN)C(=O)N[C@H](C(=O)N[C@@H](CC(C)C)C(=O)NCC(=O)N[C@@H](C)C(=O)N[C@H](C(N)=O)[C@@H](C)CC)[C@@H](C)CC
2. CC(C)C[C@H](NC(=O)[C@H](CCCCN)NC(=O)[C@H](Cc1ccccc1)NC(=O)[C@@H](NC(=O)[C@H](CCCCN)NC(=O)[C@H](CCCCN)NC(=O)[C@H](CC(C)C)NC(=O)[C@@H](N)Cc1ccccc1)C(C)C)C(=O)N[C@@H](C)C(=O)N[C@@H](CO)C(=O)N[C@@H](CCCCN)C(=O)N[C@H](C(=O)N[C@@H](Cc1ccccc1)C(=O)N1CCC[C@H]1C(=O)N[C@@H](C)C(=O)N[C@H](C(=O)N[C@@H](Cc1ccccc1)C(=O)NCC(=O)N[C@@H](CCCCN)C(=O)N[C@H](C(=O)O)C(C)C)C(C)C)C(C)C

Output:
1. 67.5
2. 1.77

----------
The following compounds have recorded MIC on Acinetobacter baumannii ATCC 19606.
One number for each entry, in µM.

| COMPOUND_STRUCTURE | MEASUREMENT_TYPE | NUMERIC_VALUE |
| --- | --- | --- |
| CC(C)[C@@H]1NC(=O)[C@H](CCCN=C(N)N)NC(=O)[C@H](Cc2ccccc2)NC(=O)[C@@H](NC(=O)[C@H](Cc2c[nH]c3ccccc23)NC(=O)[C@@H](N)CCCCN)CSSC[C@@H](C(=O)N[C@@H](CCCN=C(N)N)C(=O)O)NC(=O)[C@H](CCCN=C(N)N)NC(=O)[C@H](CCCN=C(N)N)NC(=O)[C@H](Cc2ccc(O)cc2)NC(=O)[C@@H]2CSSC[C@H](NC1=O)C(=O)N[C@@H](Cc1ccc(O)cc1)C(=O)N[C@@H](CCCN=C(N)N)C(=O)NCC(=O)NCC(=O)N2 | MIC | 0.226 |
| CC[C@H](C)[C@H](N)C(=O)N[C@@H](Cc1c[nH]c2ccccc12)C(=O)N[C@@H](CC(C)C)C(=O)N[C@H](C(=O)N[C@@H](C)C(=O)N[C@@H](CC(C)C)C(=O)N[C@@H](CCCCN)C(=O)N[C@@H](Cc1ccccc1)C(=O)N[C@@H](CC(C)C)C(=O)NCC(=O)N[C@@H](CCCCN)C(=O)N[C@@H](CC(N)=O)C(=O)N[C@@H](CC(C)C)C(=O)NCC(=O)N[C@@H](CCCCN)C(N)=O)[C@@H](C)O | MIC | 5.27 |
| CC[C@H](C)[C@@H]1NC(=O)CNC(=O)[C@H](CCCN=C(N)N)NC(=O)[C@H](Cc2ccc(O)cc2)NC(=O)[C@@H]2CSSC[C@H](NC1=O)C(=O)N[C@@H](Cc1ccc(O)cc1)C(=O)N[C@@H](CCCN=C(N)N)C(=O)N[C@@H](CCCN=C(N)N)C(=O)N[C@H](C(=O)N[C@@H](CCCN=C(N)N)C(=O)O)CSSC[C@H](NC(=O)[C@H](Cc1c[nH]c3ccccc13)NC(=O)[C@@H](N)CCCCN)C(=O)N[C@@H](Cc1ccccc1)C(=O)N[C@@H](C)C(=O)N[C@@H](C(C)C)C(=O)N2 | MIC | 0.0275 |

Task: I am curious: what MIC value has been reported for "CC[C@H](C)[C@H](NC(=O)[C@H](CCCN=C(N)N)NC(=O)CNC(=O)[C@H](CC(C)C)NC(=O)[C@H](Cc1ccccc1)NC(=O)[C@H](CCCCN)NC(=O)[C@H](CO)NC(=O)[C@H](Cc1ccccc1)NC(=O)[C@H](Cc1c[nH]c2ccccc12)NC(=O)[C@@H]1CCCN1C(=O)[C@@H](NC(=O)[C@@H](N)Cc1ccccc1)C(C)C)C(=O)N[C@@H](CC(C)C)C(N)=O" ?
Output: 6

----------
Tested on: Escherichia coli KCTC 1682
MEASUREMENT_TYPE: MIC (µM)
Numbers only, in µM.

Task: I am curious: what MIC value has been reported for "CC[C@H](C)[C@H](NC(=O)[C@H](CCCCN)NC(=O)[C@H](CO)NC(=O)[C@H](Cc1ccccc1)NC(=O)[C@H](CC(C)C)NC(=O)[C@H](CCCCN)NC(=O)[C@H](CCC(=O)O)NC(=O)[C@H](CC(C)C)NC(=O)[C@H](CCCN=C(N)N)NC(=O)[C@H](CCCCN)NC(=O)[C@H](Cc1ccccc1)NC(=O)[C@@H](NC(=O)[C@H](CCCCN)NC(=O)[C@H](CCCCN)NC(=O)[C@H](C)N)C(C)C)C(=O)N[C@@H](CCC(N)=O)C(=O)N[C@@H](CC(N)=O)C(=O)N[C@@H](CC(=O)O)C(=O)N[C@@H](CCCCN)C(N)=O" ?
Output: 12.5
